Target: Nav 1.7 (Homo sapiens)
Construct: expressed in transfected cells
Sequence (Q15858 whole entry): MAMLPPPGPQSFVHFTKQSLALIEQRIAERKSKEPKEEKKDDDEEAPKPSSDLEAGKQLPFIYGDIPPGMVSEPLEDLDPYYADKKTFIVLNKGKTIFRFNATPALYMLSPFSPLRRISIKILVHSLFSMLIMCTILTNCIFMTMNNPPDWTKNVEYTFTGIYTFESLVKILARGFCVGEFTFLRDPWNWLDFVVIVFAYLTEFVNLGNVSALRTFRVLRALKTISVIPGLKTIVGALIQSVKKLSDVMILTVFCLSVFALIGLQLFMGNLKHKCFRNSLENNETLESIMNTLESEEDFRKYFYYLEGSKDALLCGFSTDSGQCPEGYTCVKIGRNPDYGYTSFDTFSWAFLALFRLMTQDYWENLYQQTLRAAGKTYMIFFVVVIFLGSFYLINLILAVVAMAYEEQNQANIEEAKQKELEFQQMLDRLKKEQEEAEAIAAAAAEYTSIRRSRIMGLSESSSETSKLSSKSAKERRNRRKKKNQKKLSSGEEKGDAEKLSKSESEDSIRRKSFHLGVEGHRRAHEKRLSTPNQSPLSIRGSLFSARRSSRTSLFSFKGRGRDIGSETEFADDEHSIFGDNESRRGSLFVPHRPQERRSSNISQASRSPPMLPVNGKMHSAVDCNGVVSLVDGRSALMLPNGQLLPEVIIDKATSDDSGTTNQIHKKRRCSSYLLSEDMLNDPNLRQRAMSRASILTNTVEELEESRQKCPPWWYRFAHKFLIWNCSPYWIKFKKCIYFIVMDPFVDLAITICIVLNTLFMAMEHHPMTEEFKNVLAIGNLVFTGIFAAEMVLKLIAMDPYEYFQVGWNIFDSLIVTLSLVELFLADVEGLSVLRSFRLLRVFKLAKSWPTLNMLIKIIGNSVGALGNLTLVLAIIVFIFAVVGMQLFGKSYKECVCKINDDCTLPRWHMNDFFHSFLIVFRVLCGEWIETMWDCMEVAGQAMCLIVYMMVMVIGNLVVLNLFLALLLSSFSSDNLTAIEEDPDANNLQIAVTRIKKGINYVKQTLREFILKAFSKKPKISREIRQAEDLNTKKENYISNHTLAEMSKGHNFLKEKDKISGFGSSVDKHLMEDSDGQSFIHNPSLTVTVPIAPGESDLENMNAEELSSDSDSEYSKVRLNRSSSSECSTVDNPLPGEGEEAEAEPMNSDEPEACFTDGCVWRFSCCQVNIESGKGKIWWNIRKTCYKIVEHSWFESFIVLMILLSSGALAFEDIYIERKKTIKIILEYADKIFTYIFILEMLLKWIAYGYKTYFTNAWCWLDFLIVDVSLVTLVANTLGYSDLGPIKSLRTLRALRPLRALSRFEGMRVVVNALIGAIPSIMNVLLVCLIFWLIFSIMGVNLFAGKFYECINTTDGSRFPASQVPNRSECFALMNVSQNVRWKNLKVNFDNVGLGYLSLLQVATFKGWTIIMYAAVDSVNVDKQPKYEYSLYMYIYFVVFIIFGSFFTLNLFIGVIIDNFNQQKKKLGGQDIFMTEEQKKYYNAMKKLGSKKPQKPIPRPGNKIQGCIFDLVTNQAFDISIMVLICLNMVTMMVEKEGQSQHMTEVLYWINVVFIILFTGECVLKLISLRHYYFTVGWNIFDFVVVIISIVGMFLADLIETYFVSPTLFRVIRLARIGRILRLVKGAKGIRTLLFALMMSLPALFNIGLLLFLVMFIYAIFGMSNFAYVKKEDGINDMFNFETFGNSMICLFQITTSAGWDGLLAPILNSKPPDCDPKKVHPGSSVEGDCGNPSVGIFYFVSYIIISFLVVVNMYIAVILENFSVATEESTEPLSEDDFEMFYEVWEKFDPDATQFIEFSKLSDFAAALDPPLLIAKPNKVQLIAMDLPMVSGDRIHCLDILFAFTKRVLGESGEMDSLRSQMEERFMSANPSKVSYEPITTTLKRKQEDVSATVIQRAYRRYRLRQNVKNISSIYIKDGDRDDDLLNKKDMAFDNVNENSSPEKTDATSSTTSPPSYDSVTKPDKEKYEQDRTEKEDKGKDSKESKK
Assay: Whole-cell voltage clamp electrophysiology, automated patch clamp (marker c in Table of Examples)
Format: cell-based
Conditions: marker c = Automated patch clamp data; read-out: Nav 1.7 activity
pIC50: −log10 of the molar value.
property: pIC50

Study these solved cases before continuing.
>>> print(df.to_string())
                               smiles_input  property  reported_measurement
0  COCCN(c1ccccc1)c1nc(N)nc(-c2noc(-c3c(F)cccc3OC)n2)n1     pIC50                  6.78
1  CN(c1ccccc1)c1nc(N)nc(-c2noc(C(=O)N3CCC(=CCC(F)(F)F)CC3)n2)n1     pIC50                  5.49

P. C=Cc1ccc(-c2nc(-c3nc(N)nc(N(C)c4ccccc4)n3)no2)cc1
Q. CN(c1ccccc1)c1nc(N)nc(-c2noc(-c3ccc(NCC4CC4)nc3)n2)n1
R. Nc1nc(Nc2ccc(F)c(Cl)c2)nc(-c2noc(-c3ccc(OCC(F)(F)F)nc3)n2)n1
S. CN(c1ccccc1)c1nc(N)nc(-c2noc(C3CN(S(=O)(=O)c4ccccc4)C3)n2)n1
Exercise: Sort entries by pIC50 from minimum to maximum value. As an answer, provide the labels arranged in the order called for.
Key: R, S, P, Q
(R: 5.04, S: 5.31, P: 6.09, Q: 6.90)
